Recorded log10(EC50), one value per entry.
Biological target: CCK-B receptors (CHO-CCK) (Homo sapiens, UniProt P32239)
Construct: expressed in transfected cells; host or cells: CHO (CHO-CCK model cells)
Sequence (P32239 1-447): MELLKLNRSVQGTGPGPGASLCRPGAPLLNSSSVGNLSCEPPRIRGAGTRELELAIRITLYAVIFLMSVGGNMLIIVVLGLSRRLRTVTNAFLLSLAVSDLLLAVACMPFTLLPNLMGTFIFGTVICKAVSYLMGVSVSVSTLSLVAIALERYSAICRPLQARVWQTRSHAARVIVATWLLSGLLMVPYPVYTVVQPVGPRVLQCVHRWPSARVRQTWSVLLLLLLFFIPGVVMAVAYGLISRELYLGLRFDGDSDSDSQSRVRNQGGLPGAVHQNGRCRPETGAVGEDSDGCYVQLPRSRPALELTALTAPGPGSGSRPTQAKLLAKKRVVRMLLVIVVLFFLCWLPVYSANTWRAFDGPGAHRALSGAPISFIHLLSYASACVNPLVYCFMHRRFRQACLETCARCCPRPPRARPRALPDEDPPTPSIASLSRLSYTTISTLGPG
Test: Calcium flux (Fluo-8) agonist test on CHO-CCK model cells
Type: cell-based
Conditions: CHO-CCK cells, Fluo-8 calcium flux; 100% control = 20 nM CCK8
Where a SMILES comes first, the peptide text is derived from it. [ ]: non-standard residue; d: D form. The star is where a group is joined. NMeW = CN[C@@H](Cc1c[nH]c2ccccc12)C(=O)O; Phe(3-Br) = N[C@@H](Cc1cccc(Br)c1)C(=O)O; dNMeW = CN[C@H](Cc1c[nH]c2ccccc12)C(=O)O; Fmoc = O=C(OCC1c2ccccc2-c2ccccc21)*; Palmitoyl = CCCCCCCCCCCCCCCC(=O)*; Aoc(2) = CCCCCC[C@H](N)C(=O)O; Ahp(2) = CCCCC[C@H](N)C(=O)O; NMeNle = CCCC[C@H](NC)C(=O)O; Nle = CCCC[C@H](N)C(=O)O
Log scale reminder: EC50 in nM, then log10 taken.

compound	log10(EC50)
CCCCC[C@H](NC(=O)[C@@H](Cc1c[nH]c2ccccc12)N(C)C(=O)OCC1c2ccccc2-c2ccccc21)C(=O)N[C@@H](CC(=O)O)C(=O)N[C@@H](Cc1cccc(Br)c1)C(N)=O [HT-258, Fmoc-(N-Me-Trp)-Pa-Asp-Phe(3-Br)-NH2] (Fmoc-[dNMeW][Ahp(2)]D[Phe(3-Br)]-NH2)	1.35
CCCCCC[C@H](NC(=O)[C@H](Cc1c[nH]c2ccccc12)NC(C)=O)C(=O)N[C@@H](CC(=O)O)C(=O)N[C@@H](Cc1cccc(Br)c1)C(N)=O [HT-259, Ac-D-Trp-Oa-Asp-Phe(3-Br)-NH2] (Ac-W[Aoc(2)]D[Phe(3-Br)]-NH2)	0.36
CCCCC[C@H](NC(=O)[C@@H](Cc1c[nH]c2ccccc12)NC(C)=O)C(=O)N[C@@H](CC(=O)O)C(=O)N[C@@H](Cc1cccc(Br)c1)C(N)=O [HT-257, Ac-D-Trp-Pa-Asp-Phe(3-Br)-NH2] (Ac-[dW][Ahp(2)]D[Phe(3-Br)]-NH2)	0.52
CCCC[C@H](NC(=O)[C@H](Cc1c[nH]c2ccccc12)NC(=O)OCC1c2ccccc2-c2ccccc21)C(=O)N[C@@H](CC(=O)O)C(=O)N[C@@H](Cc1cccc(Br)c1)C(N)=O [HT-198, Fmoc-Trp-Nle-Asp-Phe(3-Br)-NH2] (Fmoc-W[Nle]D[Phe(3-Br)]-NH2)	2.31
CC[C@H](C)[C@H](NC(=O)[C@H](CCC(=O)O)NC(=O)[C@H](CC(N)=O)NC(=O)[C@@H](NC(=O)[C@H](CC(C)C)NC(=O)[C@H](CCC(=O)O)NC(=O)[C@H](CO)NC(=O)[C@H](CCC(=O)O)NC(C)=O)[C@@H](C)O)C(=O)N1CCC[C@H]1C(=O)N[C@@H](C)C(=O)N[C@@H](CCC(=O)O)C(=O)N[C@H](Cc1c[nH]c2ccccc12)C(=O)N[C@@H](CCSC)C(=O)N[C@@H](CC(=O)O)C(=O)N[C@@H](Cc1cccc(Br)c1)C(N)=O [HT-219] (Ac-ESELTNEIPAE[dW]MD[Phe(3-Br)]-NH2)	2.51

Prompt: Find the recorded log10(EC50) belonging to CCCC[C@H](NC(=O)[C@H](Cc1c[nH]c2ccccc12)NC(C)=O)C(=O)N[C@@H](CC(=O)O)C(=O)N[C@@H](Cc1cn(C)c2ccccc12)C(N)=O [HT-228, Ac-D-Trp-Nle-Asp-(1-Me-Trp)-NH2] and report it.
Completion: 2.42

Prompt: Param item: CCCCCCCCCCCCCCCC(=O)NCC(=O)N[C@H](Cc1c[nH]c2ccccc12)C(=O)N[C@@H](CCCC)C(=O)N[C@@H](CC(=O)O)C(=O)N[C@@H](Cc1cccc(Br)c1)C(N)=O [HT-203, (Pal)-Gly-D-Trp-Nle-Asp-Phe(3-Br)-NH2] (Palmitoyl-G[dW][Nle]D[Phe(3-Br)]-NH2)
Completion: 1.56

Prompt: Param item: CCCC[C@@H](C(=O)N[C@@H](CC(=O)O)C(=O)N[C@@H](Cc1cccc(Br)c1)C(N)=O)N(C)C(=O)[C@H](Cc1c[nH]c2ccccc12)N(C)C(=O)OCC1c2ccccc2-c2ccccc21 [HT-200] (Fmoc-[NMeW][NMeNle]D[Phe(3-Br)]-NH2)
Completion: 2.79

Prompt: Param item: CCCCCCCCCCCCCC[C@@H](NC(C)=O)C(=O)N[C@@H](CCCC)C(=O)N[C@@H](CCCCCC)C(=O)N[C@@H](Cc1cccc(Br)c1)C(N)=O [HT-266, Ac-Ha-Nle-Oa-Phe(3-Br)-NH2]
Completion: 1.60

Prompt: Param item: CSCC[C@H](NC(=O)[C@H](N)Cc1c[nH]c2ccccc12)C(=O)N[C@@H](CC(=O)O)C(=O)N[C@@H](Cc1cccc(Br)c1)C(=O)N[C@H](C)C(N)=O [HT-290, D-Trp-Met-Asp-Phe(3-Br)-D-Ala-NH2] (H-[dW]MD[Phe(3-Br)][dA]-NH2)
Completion: 3.82

Prompt: Param item: CSCC[C@H](NC(=O)[C@H](Cc1cccc(Br)c1)NC(C)=O)C(=O)N[C@@H](CC(=O)O)C(=O)N[C@@H](Cc1cccc(Br)c1)C(N)=O [HT-224, Ac-Phe(3-Br)-Met-Asp-Phe(3-Br)-NH2] (Ac-[Phe(3-Br)]MD[Phe(3-Br)]-NH2)
Completion: 1.40

Prompt: Param item: CCCC[C@H](NC(=O)[C@@H](Cc1c(C)[nH]c2ccccc12)NC(C)=O)C(=O)N[C@@H](CC(=O)O)C(=O)N[C@@H](Cc1cccc(Br)c1)C(N)=O [HT-231, Ac-(2-Me-Trp)-Nle-Asp-Phe(3-Br)-NH2]
Completion: 2.40

Prompt: Param item: CCCC[C@H](NC(=O)[C@H](Cc1c[nH]c2ccccc12)NC(C)=O)C(=O)N[C@@H](CC(=O)O)C(=O)N[C@@H](Cc1c[nH]c2ccccc12)C(N)=O [HT-225, Ac-D-Trp-Nle-Asp-Trp-NH2]
Completion: 1.52

Prompt: Param item: CCCC[C@H](NC(=O)[C@@H](Cc1c[nH]c2ccccc12)N(C)C(=O)OCC1c2ccccc2-c2ccccc21)C(=O)N[C@@H](CC(=O)OC)C(=O)N[C@@H](Cc1cccc(Br)c1)C(N)=O [HT-253] (Fmoc-[dNMeW][Nle]D(OMe)[Phe(3-Br)]-NH2)
Completion: 2.87

Prompt: Param item: CCCC[C@H](NC(=O)[C@H](Cc1c[nH]c2ccccc12)NC(=O)CNC(=O)[C@H](CCCC)NC(C)=O)C(N)=O [HT-213, Ac-Nle-Gly-Trp-Nle-NH2] (Ac-[Nle]GW[Nle]-NH2)
Completion: 2.73

Prompt: Param item: CSCC[C@H](NC(=O)[C@H](Cc1ccccc1)NC(C)=O)C(=O)N[C@@H](CC(=O)O)C(=O)N[C@@H](Cc1cccc(Br)c1)C(N)=O [HT-223, Ac-Phe-Met-Asp-Phe(3-Br)-NH2] (Ac-FMD[Phe(3-Br)]-NH2)
Completion: 2.35

Prompt: Param item: CCCC[C@H](NC(=O)[C@@H](Cc1c(C)[nH]c2ccccc12)NC(C)=O)C(=O)N[C@@H](CCC(=O)O)C(=O)N[C@@H](Cc1c(C)[nH]c2ccccc12)C(N)=O [HT-248, Ac-(2-Me-Trp)-Nle-Glu-(2-Me-Trp)-NH2]
Completion: 1.52

----------
Molecular target: CCK-B receptors (CHO-CCK) (Homo sapiens, UniProt P32239)
Construct: expressed in transfected cells; host or cells: CHO (CHO-CCK model cells)
Sequence (P32239 1-447): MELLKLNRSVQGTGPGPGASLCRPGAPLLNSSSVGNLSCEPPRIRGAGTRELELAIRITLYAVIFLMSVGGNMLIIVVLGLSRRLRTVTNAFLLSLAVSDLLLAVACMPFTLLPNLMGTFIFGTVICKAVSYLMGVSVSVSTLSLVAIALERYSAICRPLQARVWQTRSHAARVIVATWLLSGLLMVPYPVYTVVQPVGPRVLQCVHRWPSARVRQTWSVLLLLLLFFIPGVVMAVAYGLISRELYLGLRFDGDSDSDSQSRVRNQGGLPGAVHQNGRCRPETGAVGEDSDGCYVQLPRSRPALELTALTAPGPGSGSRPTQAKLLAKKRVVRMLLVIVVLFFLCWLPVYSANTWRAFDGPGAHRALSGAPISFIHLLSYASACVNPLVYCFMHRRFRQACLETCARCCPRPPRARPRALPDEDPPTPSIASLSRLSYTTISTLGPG
Assay: Calcium flux (Fluo-8) agonist test on CHO-CCK model cells
Format: cell-based
Settings: CHO-CCK cells, Fluo-8 calcium flux; 100% control = 20 nM CCK8
Where a SMILES comes first, the peptide text is derived from it. [ ]: non-standard residue; d: D form. The star is where a group is joined. dTrp(6-OH) = N[C@H](Cc1c[nH]c2cc(O)ccc12)C(=O)O; Phe(3-Br) = N[C@@H](Cc1cccc(Br)c1)C(=O)O; dNMeW = CN[C@H](Cc1c[nH]c2ccccc12)C(=O)O; Fmoc = O=C(OCC1c2ccccc2-c2ccccc21)*; Nle = CCCC[C@H](N)C(=O)O
endpoint label: EC50 (nM)
Reply with just the number (in nM).

compound	EC50 (nM)
CCCC[C@H](NC(=O)[C@H](Cc1c[nH]c2ccccc12)NC(C)=O)C(=O)N[C@@H](CCC(=O)O)C(=O)N[C@@H](Cc1cn(C)c2ccccc12)C(N)=O	3550

Prompt: Find the recorded EC50 belonging to CCCC[C@H](NC(=O)[C@@H](Cc1c[nH]c2ccccc12)N(C)C(=O)OCC1c2ccccc2-c2ccccc21)C(=O)N[C@@H](CC(=O)O)C(=O)N[C@@H](Cc1cccc(Br)c1)C(N)=O [HT-249, Fmoc-(N-Me-D-Trp)-Nle-Asp-Phe(3-Br)-NH2] (Fmoc-[dNMeW][Nle]D[Phe(3-Br)]-NH2) and report it.
Completion: 2.26

Prompt: Param item: CCCC[C@H](NC(=O)[C@H](Cc1c[nH]c2ccccc12)N(C)C(=O)CNC(=O)OCC1c2ccccc2-c2ccccc21)C(=O)N[C@@H](CC(=O)O)C(=O)N[C@@H](Cc1cccc(Br)c1)C(N)=O
Completion: 386

Prompt: Param item: CCCC[C@H](NC(=O)[C@@H](Cc1c[nH]c2cc(O)ccc12)NC(C)=O)C(=O)N[C@@H](CC(=O)O)C(=O)N[C@@H](Cc1cccc(Br)c1)C(N)=O [HT-227, Ac-(5-HTP)-Nle-Asp-Phe(3-Br)-NH2] (Ac-[dTrp(6-OH)][Nle]D[Phe(3-Br)]-NH2)
Completion: 22
